pIC50: −log10 of the molar value.
Listed here: molecules with reported pIC50 for IRAK4 (Homo sapiens (Human)).

# count of solved cases: 3
> print(dat)
                                   molecule  experimental.result
1  NC(=O)c1cccc(-c2ncc3ccc(-c4cncc(N)c4)cn23)n1 [Example 77]         6.00 to 7.00
2  CC(N)c1cccc(-c2ccc3cnn(-c4cccc(C(F)(F)F)n4)c3c2)c1 (centres unmarked) [Example 89]               > 7.00
3  Cc1nc(-n2ncc3ccc(-c4cccc(C(C)N)n4)cc32)cs1 (centres unmarked) [Example 136]         6.00 to 7.00

# query: pIC50 of entry CCOc1cc(-c2cccc([C@@H](N)[C@@H](CC)OC)n2)cc2c1cnn2-c1cccc(CO)n1 [Example 445]
> 7.00

# query: pIC50 of entry CCC(N)c1cccc(-c2ccc3cnn(-c4cccc(C(F)(F)F)n4)c3c2)n1 (centres unmarked) [Example 127]
> 7.00

# query: pIC50 of entry CC(O)c1cccc(-n2ncc3ccc(-c4cccc([C@H](C)N)n4)cc32)n1 (single isomer, unassigned) [Example 415]
6.00 to 7.00

# query: pIC50 of entry NCc1cccc(-c2ccc3cnn(-c4cccc(C(N)=O)n4)c3c2)n1 [Example 47]
> 7.00

# query: pIC50 of entry COC(=O)c1cc(-c2cncc(N)c2)cc2c1cnn2-c1cccc(C(F)(F)F)n1 [Example 50]
> 7.00

The measured values listed here are drawn from patent US10246456B2.
